Target: T1, human ST2L (human, UniProt Q01638 19-328, limits assumed)
T1 construct: also called IL-1R4; IL-33Ra
T1 sequence (looked up): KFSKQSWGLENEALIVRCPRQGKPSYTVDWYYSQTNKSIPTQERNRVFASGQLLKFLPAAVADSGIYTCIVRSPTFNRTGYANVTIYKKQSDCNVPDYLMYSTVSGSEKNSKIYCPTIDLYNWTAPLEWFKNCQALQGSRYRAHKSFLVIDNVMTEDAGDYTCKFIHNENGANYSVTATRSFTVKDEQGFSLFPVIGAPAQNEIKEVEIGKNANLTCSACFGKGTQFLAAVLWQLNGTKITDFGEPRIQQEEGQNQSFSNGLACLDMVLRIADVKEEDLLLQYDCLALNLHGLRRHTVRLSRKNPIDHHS
Assay: affinity table; method not stated
# koff per record follows

- Binder: "STLM211 (antibody, from another filing, V domains shown) VH: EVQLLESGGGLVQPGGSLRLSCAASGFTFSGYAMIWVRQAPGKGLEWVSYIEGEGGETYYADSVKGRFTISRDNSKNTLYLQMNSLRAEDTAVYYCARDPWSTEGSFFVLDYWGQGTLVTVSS VL: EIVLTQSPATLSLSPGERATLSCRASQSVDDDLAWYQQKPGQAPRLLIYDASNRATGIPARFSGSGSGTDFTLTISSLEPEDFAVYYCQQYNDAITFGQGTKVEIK"
  koff [s⁻¹]: 0.000483
- Binder: "STLM212 (antibody, from another filing, V domains shown) VH: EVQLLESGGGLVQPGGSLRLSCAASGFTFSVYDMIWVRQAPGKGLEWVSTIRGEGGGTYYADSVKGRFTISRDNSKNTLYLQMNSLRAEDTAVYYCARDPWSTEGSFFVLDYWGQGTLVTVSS VL: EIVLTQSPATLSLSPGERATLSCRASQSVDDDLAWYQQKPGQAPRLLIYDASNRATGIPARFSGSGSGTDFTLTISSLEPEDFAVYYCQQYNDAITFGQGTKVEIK"
  koff [s⁻¹]: 0.000398
